Measured values drawn from paper PMC10397247 for this set.

target_system: T1, P6-AA-1HGe-A
T1 chain: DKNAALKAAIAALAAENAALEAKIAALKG
assay_text: two-hybrid library CCmax;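 also: natural log of median RNA to DNA barcode read ratio; higher means stronger binding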
condition_context: mean of both orientations
reported_metric: interaction score
Keep it simple and answer with nothing but the number.

Req: Name the recorded interaction score for DENAALEAYIAALYAKNAALKAEIAALEG [P5-AA-1HGe-Y] .
Resp: 1.95

Req: Entry DENAALEADIAALDAKNAALKAEIAALEG [P5-AA-1HGe-D] has what interaction score?
Resp: 0.812

Req: Suppose we examine the binder DENAALEAHIAALHAKNAALKAEIAALEG [P5-AA-1HGe-H] ; what interaction score value has been reported?
Resp: 1.88

Req: Given the binder DENAALEAAIAALAAKNAALKAEIAALEG [P5-AA-1HGe-A] , what is its reported interaction score?
Resp: 2.12
